study-target: T1, huNotch2-EGF6-10 (human, UniProt Q04721 219-418)
T1 construct: also called human Notch2 EGF6-10
T1 sequence: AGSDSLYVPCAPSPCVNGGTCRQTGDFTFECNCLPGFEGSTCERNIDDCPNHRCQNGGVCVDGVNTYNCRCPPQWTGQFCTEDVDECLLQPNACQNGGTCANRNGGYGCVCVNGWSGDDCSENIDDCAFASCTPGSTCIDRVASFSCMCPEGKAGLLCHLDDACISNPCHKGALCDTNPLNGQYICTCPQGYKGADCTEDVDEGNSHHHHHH
protocol-summary: SPR BIAcore, separate experiment, substantially as for Table 4
test-readout: Kd (nM)
Give bare numbers, in nM.

hu.3107.L6H12 (antibody, V domains shown, also called hu.Notch-3107.L6H12) VH: EVQLVQSGAEVKKPGASVKVSCKASGYTFSNYVIHWVRQAPGQGPEWTGYIIPGSGGTKFNEKFKGRATSTVDTSSTTAYMELSRLRSDDTVVYYCARDGAGSFTYWGQGTLVTVSS VL: DVVMTQSPDSLAVSLGERATINCRSSQSLVHSDGNTYLHWFQQKPGQPPKLLIYRISNRFSGVPDRFSGSGSGTDFTLTISSLQAEDVAVYYCLQSTHFPDTFGGGTKVEIK ... 9.79
hu.3107.L7H12 (antibody, V domains shown, also called hu.Notch-3107.L7H12) VH: EVQLVQSGAEVKKPGASVKVSCKASGYTFSNYVIHWVRQAPGQGPEWTGYIIPGSGGTKFNEKFKGRATSTVDTSSTTAYMELSRLRSDDTVVYYCARDGAGSFTYWGQGTLVTVSS VL: DIVMTQSPDSLAVSLGERATINCRSSQSLVHSDGNTYLHWYQQKPGQPPKLLIYRISNRFSGVPDRFSGSGSGTDFTLTISSLQAEDVAVYYCLQSTHFPDTFGGGTKVEIK ... 9.54
hu.3107.L7H14 (antibody, V domains shown, also called hu.Notch-3107.L7H14) VH: EVQLVQSGAEVKKPGESLKISCKGSGYTFSNYVIHWVRQMPGKGPEWTGYIIPGSGGTKFNEKFKGQATISVDKSSTTAYLQWSSLKASDTAMYYCARDGAGSFTYWGQGTLVTVSS VL: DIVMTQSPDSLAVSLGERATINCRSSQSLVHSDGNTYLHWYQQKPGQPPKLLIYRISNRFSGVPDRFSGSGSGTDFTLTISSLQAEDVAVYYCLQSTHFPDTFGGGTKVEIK ... 10.4

Each of the following entries comes with a recorded value; kindly state Kd for each.
1. hu.3107.L6H13 (antibody, V domains shown, also called hu.Notch-3107.L6H13) VH: EVQLVQSGAEVKKPGASVKVSCKASGYTFSNYVIHWVRQAPGQGPEWTGYIIPGSGGTKFNEKFKGRATSTVDTSITTAYMELSRLRSDDTVVYYCARDGAGSFTYWGQGTLVTVSS VL: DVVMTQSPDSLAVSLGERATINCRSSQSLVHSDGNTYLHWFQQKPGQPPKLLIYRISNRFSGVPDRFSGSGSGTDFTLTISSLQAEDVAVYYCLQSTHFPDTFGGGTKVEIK
2. rat.3107 (rat/human chimeric anti-Notch2 antibody 3107) (antibody, V domains shown) VH: QVQLQQSGAELAKSGSSVKISCKASGYTFSNYVIHWIKQTTGQAPEWTGYIIPGSGGTKFNEKFKGKATLTVDKSSTTAYMQLSSLTPVDTAVYYCARDGAGSFTYWGQGTLVTVSS VL: DVLMTQTPVSLPVSLGGQVSISCRSSQSLVHSDGNTYLHWFLQKPGQSPQLLIYRISNRFSGVPDRFSGSGSGTDFTLKISRVEPEDLGVYYCLQSTHFPDTFGGGTKVEIK

## Output
9.47
9.12
